src = ChEMBL document CHEMBL2311525

Biological target: UniProt P34972
Sequence (P34972 whole entry): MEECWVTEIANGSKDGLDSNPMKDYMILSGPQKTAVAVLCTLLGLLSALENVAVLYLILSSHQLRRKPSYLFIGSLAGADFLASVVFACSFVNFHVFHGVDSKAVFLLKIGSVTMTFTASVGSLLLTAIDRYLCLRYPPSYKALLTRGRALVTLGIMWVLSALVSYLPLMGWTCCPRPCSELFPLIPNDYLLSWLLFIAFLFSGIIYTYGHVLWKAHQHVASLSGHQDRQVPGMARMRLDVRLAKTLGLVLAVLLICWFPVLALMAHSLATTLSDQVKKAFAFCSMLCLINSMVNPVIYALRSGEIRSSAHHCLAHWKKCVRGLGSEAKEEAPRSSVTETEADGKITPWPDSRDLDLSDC
Experiment: Agonist activity at human CB2 receptor expressed in CHO cells assessed as forskolin-stimulated [3H]cyclic-AMP accumulation by scintillation counting analysis
pEC50: −log10 of the molar value.
Returns one of True or False; True when pEC50 is >= 7.

[[record]]
testsmiles = "CCCCCCn1cc(C(=O)NC2CCCCC2)c(=O)c2c(C)nn(C)c21"
labelclass = "False"

[[record]]
testsmiles = "CCCCCn1cc(C(=O)NC2CCCCCC2)c(=O)c2cnn(C)c21"
labelclass = "False"

[[record]]
testsmiles = "CCCCCn1cc(C(=O)NC2CCCCCC2)c(=O)c2c(C)nn(C)c21"
labelclass = "True"

[[record]]
testsmiles = "CCCCCn1cc(C(=O)NC2CCCCCC2)c(=O)c2c(C)noc21"
labelclass = "True"


Kindly consider the entry below.
## Input Is pEC50 for `CCCCCn1cc(C(=O)NC2CCCCC2)c(=O)c2c(CC)nn(C)c21` at or above 7?
## Output False

* * *

The following are reported log10 Ki results, target or system UniProtKB Q9QZN9.
log10 Ki, nM

Recorded log10 Ki, per entry:
[[record]]
testsmiles = "Cc1nn(C)c2c1c(=O)c(C(=O)NC1CCCCC1)cn2Cc1ccccc1"
outcomemeasure = "log10 Ki"
testresult = 3.04

[[record]]
testsmiles = "CCCCCn1cc(C(=O)N[C@H]2CC[C@@H](C)CC2)c(=O)c2c(C)nn(C)c21"
outcomemeasure = "log10 Ki"
testresult = 1.07

[[record]]
testsmiles = "CCCCCn1cc(C(=O)NCC2CCCCC2)c(=O)c2c(C)nn(C)c21"
outcomemeasure = "log10 Ki"
testresult = 2.71


Consider now this further compound.
Recorded log10 Ki for `CCCCCn1cc(C(=O)NC2CCCCCC2)c(=O)c2c(C)nn(C)c21` on UniProtKB Q9QZN9 was 1.54

* * *

Molecular target: Cannabinoid receptor 2 (Rattus norvegicus) (UniProt Q9QZN9)
Sequence (whole entry): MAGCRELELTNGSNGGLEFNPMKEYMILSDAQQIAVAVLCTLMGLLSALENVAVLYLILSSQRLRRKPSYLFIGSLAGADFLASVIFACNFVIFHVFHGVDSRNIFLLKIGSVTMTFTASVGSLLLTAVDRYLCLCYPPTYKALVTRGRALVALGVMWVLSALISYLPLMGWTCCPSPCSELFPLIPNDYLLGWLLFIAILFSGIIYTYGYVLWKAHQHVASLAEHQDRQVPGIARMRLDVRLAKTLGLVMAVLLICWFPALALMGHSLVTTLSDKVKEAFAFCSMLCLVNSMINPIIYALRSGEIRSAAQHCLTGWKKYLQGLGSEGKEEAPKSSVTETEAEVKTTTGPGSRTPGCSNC
Experiment: Displacement of [3H]CP-55,940 from Sprague-Dawley rat spleen CB2 receptor at 1 to 10000 nM by scintillation counting analysis
Quick reference for inhibition among some molecules

[[record]]
testsmiles = "CCOCCn1cc(C(=O)NC2CCCCC2)c(=O)c2c(C)nn(C)c21"
testedsystem = "Cannabinoid receptor 2 (Rattus norvegicus) (UniProt Q9QZN9)"
testresult = "1%"

[[record]]
testsmiles = "CCCCCn1cc(C(=O)NC2CCCCCC2)c(=O)c2c(-c3ccccc3)nn(C)c21"
testedsystem = "Cannabinoid receptor 2 (Rattus norvegicus) (UniProt Q9QZN9)"
testresult = "1%"


molecule `CCCCCn1cc(C(=O)Nc2ccc(F)cc2)c(=O)c2c(C)nn(C)c21` , inhibition observed: 27%

molecule `Cc1nn(C)c2c1c(=O)c(C(=O)NC1CCCCC1)cn2CCN1CCOCC1` , inhibition observed: 32%
